The reported numbers originate from ChEMBL document CHEMBL4382208.

Tested on: Peritoneal macrophage
assaySummary: Antiinflammatory activity in mouse primary peritoneal macrophages assessed as inhibition of LPS-induced TNF-alpha production preincubated for 30 mins followed by LPS addition and measured after 24 hrs by ELISA
Assay type: functional, cell-based
Would you mind telling me the reported pIC50 of each entry?
Convention used: pIC50 is expressed as -log10 of the molar concentration.

Record request: pIC50 value, item "Cn1c(S(=O)(=O)c2ccc(C(F)(F)F)cc2)cc2ccccc21"
5.10

Record request: pIC50 value, item "Cc1ccc(S(=O)(=O)c2cc3ccccc3n2C)cc1"
4.92

Record request: pIC50 value, item "Cn1c(S(=O)(=O)c2ccc(C(C)(C)C)cc2)cc2ccccc21"
5.51

Record request: pIC50 value, item "COc1ccc(S(=O)(=O)c2cc3ccccc3n2C)cc1"
4.23

* * *

System: Peritoneal macrophage
assaySummary: Antiinflammatory activity in mouse primary peritoneal macrophages assessed as inhibition of LPS-induced IL-6 production preincubated for 30 mins followed by LPS addition and measured after 24 hrs by ELISA
Format: functional, cell-based
Would you mind telling me the reported pIC50 of each entry?
Convention used: pIC50 is expressed as -log10 of the molar concentration.

Report pIC50 for "Cn1c(S(=O)(=O)c2ccc(C(C)(C)C)cc2)cc2ccccc21" tested on Peritoneal macrophage.
5.96

Report pIC50 for "Cn1c(S(=O)(=O)c2ccc(C(F)(F)F)cc2)cc2ccccc21" tested on Peritoneal macrophage.
5.74

Report pIC50 for "Cc1ccc(S(=O)(=O)c2cc3ccccc3n2C)cc1" tested on Peritoneal macrophage.
5.62

Report pIC50 for "COc1ccc(S(=O)(=O)c2cc3ccccc3n2C)cc1" tested on Peritoneal macrophage.
5.95

* * *

Test system: Peritoneal macrophage
assaySummary: Cytotoxicity against mouse primary peritoneal macrophages assessed as reduction in cell viability at 10 uM after 24 hrs by MTT assay
Format: cell-based
measuredEndpoint: Activity

> print(dat)
                                inputsmiles          assayedtarget  reportedresult
1  COc1ccc2c(c1)cc(S(=O)(=O)c1ccc(C(F)(F)F)cc1)n2C  Peritoneal macrophage       Non-Toxic
2                Cn1c(S(C)(=O)=O)cc2ccccc21  Peritoneal macrophage       Non-Toxic
3  COc1ccc2c(c1)cc(S(=O)(=O)c1ccc(C(C)(C)C)cc1)n2C  Peritoneal macrophage       Non-Toxic
4  CCn1c(-c2ccccc2)c(S(=O)(=O)c2ccc(C)cc2)c2ccccc21  Peritoneal macrophage       Non-Toxic
5      Cn1c(S(=O)(=O)c2ccc(F)cc2)cc2ccccc21  Peritoneal macrophage       Non-Toxic

Report Activity for "Cc1ccccc1S(=O)(=O)c1cc2ccccc2n1C" tested on Peritoneal macrophage.
Non-Toxic

Report Activity for "Cc1ccc2cc(S(=O)(=O)c3cccc4ccccc34)[nH]c2c1" tested on Peritoneal macrophage.
Non-Toxic

Report Activity for "CCCCn1c(S(=O)(=O)c2ccc(C)cc2)cc2ccccc21" tested on Peritoneal macrophage.
Non-Toxic

Report Activity for "COc1ccc(S(=O)(=O)c2[nH]c3cc(C)ccc3c2I)cc1" tested on Peritoneal macrophage.
Non-Toxic
